- ASSAY_PROTOCOL: Cytotoxicity by MTT test on Thp1 cell line
- Format: cell-based, humains
- TEST_PARAMETERS: human, Tableau 3; separate experiments; mean of three independent experiments; read-out: Thp1 CC50

MOLECULE | CC50 at 72 h / µM
N=C(N)c1ccc(OCCCCCOc2ccc(C(=N)N)cc2)cc1 [Pentamidine, reference compound] | 65.9
COc1cccc2c1C(=O)c1c(O)c3c(c(O)c1C2=O)C[C@@](O)(C(=O)CO)C[C@@H]3O[C@H]1C[C@H](N)[C@H](O)[C@H](C)O1 | 0.7

====

- Test system: amastigotes axéniques de L. infantum
- ASSAY_PROTOCOL: Anti-leishmanial activity on axenic amastigotes of L. infantum (luciferase luminescence)
- TEST_PARAMETERS: Tableau 2; CC50 Thp1 / CI50 axenic amastigotes of L. infantum
Known Indice de sélectivité CC50/IC50 SI of a selection of compounds

COMPOUND | Indice de sélectivité CC50/IC50 SI
FC(F)(F)c1cc(-n2cc[n+](Cc3ccccc3)[c]2[Au-][Cl])cc(C(F)(F)F)c1 | 47,09
CC(=O)OCC1OC([S][Au-][c]2n(-c3ccc(F)cc3)cc[n+]2C(C)C)C(OC(C)=O)C(OC(C)=O)C1OC(C)=O (stereo not shown) | 13.43
CC(C)[n+]1ccn(-c2cccc(OC(F)(F)F)c2)[c]1[Au-][Cl] | 178.52
Fc1ccc(-n2cc[n+](-c3ccc4ccccc4n3)[c]2[Au-][Cl])cc1 | 474,17
CSc1ccc(OCc2ncc([N+](=O)[O-])n2C)cc1 [Fexinidazole, reference compound] | >104,41
CC(=O)OCC1OC([S][Au-][c]2n(-c3ccc(OC(F)(F)F)cc3)cc[n+]2Cc2ccccc2)C(OC(C)=O)C(OC(C)=O)C1OC(C)=O (stereo not shown) | 53,92
FC(F)(F)c1cc(-n2cc[n+](-c3ccc4ccccc4n3)c2)cc(C(F)(F)F)c1 | 3,07

====

- Tested on: lignée cellulaire Thp1
- ASSAY_PROTOCOL: Cytotoxicity by MTT test on Thp1 cell line
- Type: cell-based, humains
- TEST_PARAMETERS: Tableau 3; separate experiments; mean of three independent experiments; read-out: Thp1 CC50
The following compounds are shown together with reported CC50 values.
READOUT_KIND: CC50 (µM)

COMPOUND | TEST_TARGET | VALUE_UNIT | OBSERVED_RESULT
CCCCCCCCCCCCCCCCOP(=O)([O-])OCC[N+](C)(C)C [Miltéfosine, reference compound] | lignée cellulaire Thp1 | µM | 35
C[C@@H]1[C@H](O)[C@@H](C)/C=C/C=C/C=C/C=C/C=C/C=C/C=C/[C@H](O[C@@H]2O[C@H](C)[C@@H](O)[C@H](N)[C@@H]2O)C[C@@H]2O[C@](O)(C[C@@H](O)C[C@@H](O)[C@H](O)CC[C@@H](O)C[C@@H](O)CC(=O)O[C@H]1C)C[C@H](O)[C@H]2C(=O)O [Amphotéricine B, reference compound] | lignée cellulaire Thp1 | µM | 13.1

====

Examples of compounds with documented Indice de sélectivité CC50/IC50 SI follow.
- Tested on: amastigotes axéniques de L. infantum
- ASSAY_PROTOCOL: Anti-leishmanial activity on axenic amastigotes of L. infantum (luciferase luminescence)
- TEST_PARAMETERS: Tableau 2; CC50 Thp1 / CI50 axenic amastigotes of L. infantum
READOUT_KIND: Indice de sélectivité CC50/IC50 SI

COMPOUND | OBSERVED_RESULT
FC(F)(F)Oc1cccc(-n2cc[n+](Cc3ccccc3)[c]2[Au-][Cl])c1 | 62,55
FC(F)(F)Oc1ccc(-n2cc[n+](Cc3ccccc3)[c]2[Au-][Cl])cc1 | 67,85
CC(C)[n+]1ccn(-c2cc(C(F)(F)F)cc(C(F)(F)F)c2)[c]1[Au-][Cl] | 119,72
FC(F)(F)c1ccc(-n2cc[n+](-c3ccc4ccccc4n3)[c]2[Au-][Cl])cc1 | 130,05
CC(C)[n+]1ccn(-c2ccc(F)cc2)[c]1[Au-][Cl] | 178,50
CC(=O)OCC1OC([S][Au-][c]2n(-c3cccc(OC(F)(F)F)c3)cc[n+]2Cc2ccccc2)C(OC(C)=O)C(OC(C)=O)C1OC(C)=O (centres unmarked) | 23,15
FC(F)(F)Oc1ccc(-n2cc[n+](-c3ccc4ccccc4n3)[c]2[Au-][Cl])cc1 | 136,42
CC(=O)OCC1OC([S][Au-][c]2n(-c3cc(C(F)(F)F)cc(C(F)(F)F)c3)cc[n+]2C(C)C)C(OC(C)=O)C(OC(C)=O)C1OC(C)=O (centres unmarked) | 18,79

====

- Tested on: lignée cellulaire Thp1
- ASSAY_PROTOCOL: Cytotoxicity by MTT test on Thp1 cell line
- Assay type: cell-based, humains
- TEST_PARAMETERS: read-out: CC50 sur la lignée cellulaire humaine Thp1
READOUT_KIND: CC50

COMPOUND | OBSERVED_RESULT
CCCCCCCCCCCCCCCCOP(=O)([O-])OCC[N+](C)(C)C [Miltéfosine, reference compound] | 35 µM
C[C@@H]1[C@H](O)[C@@H](C)/C=C/C=C/C=C/C=C/C=C/C=C/C=C/[C@H](O[C@@H]2O[C@H](C)[C@@H](O)[C@H](N)[C@@H]2O)C[C@@H]2O[C@](O)(C[C@@H](O)C[C@@H](O)[C@H](O)CC[C@@H](O)C[C@@H](O)CC(=O)O[C@H]1C)C[C@H](O)[C@H]2C(=O)O [Amphotéricine B, reference compound] | 10.5 µM

====

- Test system: amastigotes axéniques de L. infantum
- ASSAY_PROTOCOL: Anti-leishmanial activity on axenic amastigotes of L. infantum (luciferase luminescence)
- TEST_PARAMETERS: Tableau 2; CC50 Thp1 / CI50 axenic amastigotes of L. infantum
Listing of recorded Indice de sélectivité CC50/IC50 SI by entry.

COMPOUND | TEST_TARGET | Indice de sélectivité CC50/IC50 SI
C[C@@H]1[C@H](O)[C@@H](C)/C=C/C=C/C=C/C=C/C=C/C=C/C=C/[C@H](O[C@@H]2O[C@H](C)[C@@H](O)[C@H](N)[C@@H]2O)C[C@@H]2O[C@](O)(C[C@@H](O)C[C@@H](O)[C@H](O)CC[C@@H](O)C[C@@H](O)CC(=O)O[C@H]1C)C[C@H](O)[C@H]2C(=O)O [Amphotéricine B, reference compound] | amastigotes axéniques de L. infantum | 139,87
N=C(N)c1ccc(OCCCCCOc2ccc(C(=N)N)cc2)cc1 [Pentamidine, reference compound] | amastigotes axéniques de L. infantum | >4,74
CCCCCCCCCCCCCCCCOP(=O)([O-])OCC[N+](C)(C)C [Miltéfosine, reference compound] | amastigotes axéniques de L. infantum | 49,32
CC(C)[n+]1ccn(-c2ccc(OC(F)(F)F)cc2)[c]1[Au-][Cl] | amastigotes axéniques de L. infantum | 118,53
FC(F)(F)Oc1cccc(-n2cc[n+](-c3ccc4ccccc4n3)[c]2[Au-][Cl])c1 | amastigotes axéniques de L. infantum | 129,70
CC(=O)OCC1OC([S][Au-][c]2n(-c3cc(C(F)(F)F)cc(C(F)(F)F)c3)cc[n+]2Cc2ccccc2)C(OC(C)=O)C(OC(C)=O)C1OC(C)=O (stereo not drawn) | amastigotes axéniques de L. infantum | 30,63

====

The reader will find reported CC50 at 72 h values listed item by item below.
- ASSAY_PROTOCOL: Cytotoxicity by MTT test on Thp1 cell line
- Type: cell-based, humains
- TEST_PARAMETERS: human; read-out: CC50 sur la lignée cellulaire humaine Thp1

MOLECULE | CC50 at 72 h
CSc1ccc(OCc2ncc([N+](=O)[O-])n2C)cc1 [Fexinidazole, reference compound] | > 355 µM
N=C(N)c1ccc(OCCCCCOc2ccc(C(=N)N)cc2)cc1 [Pentamidine, reference compound] | > 50 µM

====

- TEST_TARGET: amastigotes axéniques de L. infantum
- ASSAY_PROTOCOL: Anti-leishmanial activity on axenic amastigotes of L. infantum (luciferase luminescence)
- TEST_PARAMETERS: read-out: Amastigotes axéniques de L. infantum CI50; Tableau 2; mean of three independent experiments
pIC50: −log10 of the molar value.

SMILES_ENTRY | TEST_TARGET | pIC50
FC(F)(F)c1cc(-n2cc[n+](Cc3ccccc3)c2)cc(C(F)(F)F)c1 | amastigotes axéniques de L. infantum | < 4.30

====

Reported pIC50 values follow for various molecules
- Test system: amastigotes axéniques de L. infantum
- ASSAY_PROTOCOL: Anti-leishmanial activity on axenic amastigotes of L. infantum (luciferase luminescence)
- TEST_PARAMETERS: Leishmania infantum, read-out: Amastigotes axéniques de L. infantum CI50
pIC50: −log10 of the molar value.

MOLECULE | pIC50
FC(F)(F)c1ccc(-n2cc[n+](Cc3ccccc3)c2)cc1 | < 4.30
FC(F)(F)Oc1ccc(-n2cc[n+](-c3ccc4ccccc4n3)c2)cc1 | < 4.30
CC(C)[n+]1ccn(-c2ccc(C(F)(F)F)cc2)c1 | < 4.30
CC(C)[n+]1ccn(-c2ccc(OC(F)(F)F)cc2)c1 | < 4.30
CC(C)[n+]1ccn(-c2cc(C(F)(F)F)cc(C(F)(F)F)c2)c1 | < 4.30
CSc1ccc(OCc2ncc([N+](=O)[O-])n2C)cc1 [Fexinidazole, reference compound] | 5.47
FC(F)(F)Oc1ccc(-n2cc[n+](Cc3ccccc3)c2)cc1 | < 4.30
Fc1ccc(-n2cc[n+](-c3ccc4ccccc4n3)c2)cc1 | < 4.30
Fc1ccc(-n2cc[n+](Cc3ccccc3)c2)cc1 | < 4.30
